Origin of the recorded values: PubChem BioAssay

- experimental_target: Fibroblast growth factor 10 (Homo sapiens) (UniProt O15520)
- Sequence (O15520 whole entry, looked up): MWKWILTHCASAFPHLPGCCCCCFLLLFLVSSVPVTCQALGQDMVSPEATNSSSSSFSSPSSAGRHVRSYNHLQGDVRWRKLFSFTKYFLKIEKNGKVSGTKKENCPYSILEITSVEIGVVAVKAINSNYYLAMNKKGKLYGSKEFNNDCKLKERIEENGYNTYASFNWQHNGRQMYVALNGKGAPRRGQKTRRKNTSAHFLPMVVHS
- protocol_description: FGF10 binders on small-molecule microarrays, primary screen, biochemical, small-molecule microarray, 635 nm fluorescence (AID 1102)
- condition_details: FGF10 binding, fluorescence 635 nm, higher = more signal
Please use the following composite z-score ranges when assigning a class: lo: < 0.3; mid: ≥ 0.3 and < 0.8; hi: ≥ 0.8

Exam item: assign CC(=O)OC[C@H]1O[C@H](CC=NOC[C@@H](C)[C@H](OCc2ccccc2)C(C)C)C=C[C@@H]1OC(C)=O to the correct category.
lo

Exam item: assign COc1ccc(CCNC(=O)[C@@H]2c3ccccc3C(=O)N(c3ccc(C)cn3)[C@H]2c2ccc(CO)cc2)cc1 to the correct category.
lo

Exam item: assign O=C1C[C@@H](O)[C@@H](O)[C@@H]2[C@@H]3C(=O)N(c4ccc(F)cc4F)C(=O)[C@@H]3CC[C@@H]12 to the correct category.
mid

Exam item: assign C[C@@H]1CCC2C(=O)N(Cc3ccccc3)C[C@@H](O)CN2[C@H]1c1ccc(Br)cc1 (some centres undefined) to the correct category.
hi

Exam item: assign CC(C)=CCCC(C)=CCON=C1[C@H]2CCn3c(=O)n(Cc4cc5c(cc4Cl)OCO5)c(=O)n3[C@H]2[C@H](O)[C@@H]2O[C@H]12 to the correct category.
mid

Exam item: assign CO[C@H]1COC(=O)[C@@H]2CCCN2C(=O)[C@@H](C)COC(=O)CC=C[C@@H]1C to the correct category.
mid

Exam item: assign O=C1[C@H]2[C@H]3[C@H](O)[C@H](O)CC(=NOCc4ccccc4)[C@H]3CC[C@H]2C(=O)N1c1ccc(F)cc1F to the correct category.
lo

Exam item: assign COCCOC(=O)N1C(=O)[C@@]2(c3cc(C#CC4(O)CCCCCC4)ccc31)[C@H](c1ccc(OCCO)cc1)N1[C@H](c3ccccc3)[C@H](c3ccccc3)OC(=O)[C@H]1[C@@H]2C(=O)NC[C@H](O)c1ccccc1 to the correct category.
hi

Exam item: assign O=C1[C@H]2[C@H]3[C@H](O)[C@H](O)CC(=NOC[C@@H](O)COCc4ccco4)[C@H]3CC[C@H]2C(=O)N1C1CCCCC1 to the correct category.
lo

Exam item: assign CCc1cccc(NC(=O)O[C@H]2[C@H](OC(=O)Nc3ccc4c(c3)OCO4)[C@@H](OC(=O)Nc3ccc4c(c3)OCO4)[C@@H](OC)O[C@@H]2CO)c1 to the correct category.
hi

Exam item: assign COc1ccc(COC(=O)NN=C2C[C@@H](O)[C@@H](O)[C@@H]3[C@@H]4C(=O)N(Cc5ccc6c(c5)OCO6)C(=O)[C@@H]4CC[C@@H]23)cc1 to the correct category.
lo

Exam item: assign Cc1cc2c(nc1C)CCCN2CC(O)CN1CCN(C)CC1 (centres undefined) to the correct category.
mid

Exam item: assign COCCOC(=O)N1C(=O)[C@@]2(c3cc(C#CCNC(N)=O)ccc31)[C@H](c1ccccc1OCCO)N1[C@H](c3ccccc3)[C@H](c3ccccc3)OC(=O)[C@H]1[C@@H]2C(=O)N1CCN(c2ncccn2)CC1 to the correct category.
hi
